Test system: JVM-2;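 note: growth inhibition of JVM-2 cells determined by a cell viability assay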
Test: cells
Assay type: functional, cell-based, Homo sapiens
Conditions: Homo sapiens, JVM-2
Description: SANGER: Inhibition of human JVM-2 cell growth in a cell viability assay.

{"compound": "Nc1cccc2c1CN(C1CCC(=O)NC1=O)C2=O (centres undefined) [LENALIDOMIDE]", "IC50": "> 5 µM"}
{"compound": "CCC/C=C/C=C/C(=O)O[C@H]1/C(=C/C(=O)OC)C[C@H]2C[C@H]([C@@H](C)O)OC(=O)C[C@H](O)C[C@@H]3C[C@H](OC(C)=O)C(C)(C)[C@](O)(C[C@@H]4C/C(=C/C(=O)OC)C[C@H](/C=C/C(C)(C)[C@]1(O)O2)O4)O3 [BRYOSTATIN 1]", "IC50": "> 0.008 µM"}
{"compound": "CC[C@H](CO)Nc1nc(NCc2ccccc2)c2ncn(C(C)C)c2n1 [SELICICLIB]", "IC50": "> 16 µM"}
{"compound": "COc1cc(N2CCN(C)CC2)ccc1Nc1ncc2c(n1)N(C)c1ccccc1C(=O)N2C", "IC50": "> 8 µM"}
{"compound": "Cc1cc([N+](=O)[O-])ccc1NS(=O)(=O)c1cc(Cl)ccc1Cl", "IC50": "> 32 µM"}
{"compound": "C=C(c1ccc(C(=O)O)cc1)c1cc2c(cc1C)C(C)(C)CCC2(C)C [BEXAROTENE]", "IC50": "> 8 µM"}
{"compound": "CN(C)C(=N)NC(=N)N [METFORMIN]", "IC50": "> 20000 µM"}
{"compound": "N#Cc1c(O)c2c(-c3ccc(-c4ccccc4O)cc3)csc2[nH]c1=O", "IC50": "> 1.02 µM"}
{"compound": "CCN(CC)CCCCNc1ncc2cc(-c3cc(OC)cc(OC)c3)c(NC(=O)NC(C)(C)C)nc2n1 [PD-173074]", "IC50": "> 2 µM"}

---

Test system: CAL-27;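 note: Viability-based readout, IC50 reflecting inhibition of CAL-27 cell growth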
Test: cells
Format: functional, cell-based, Homo sapiens
Settings: Homo sapiens, CAL-27
Description: SANGER: Inhibition of human CAL-27 cell growth in a cell viability assay.
Recorded IC50 values for a group of molecules are listed next.
test_readout: IC50

{"molecule": "Nc1cccc2c1CN(C1CCC(=O)NC1=O)C2=O (centres undefined) [LENALIDOMIDE]", "result": "> 5 µM"}
{"molecule": "Oc1ccc2ccccc2c1SSc1c(O)ccc2ccccc12", "result": "> 32 µM"}
{"molecule": "COc1cccc2c1C(=O)c1c(O)c3c(c(O)c1C2=O)C[C@@](O)(C(=O)CO)C[C@@H]3O[C@H]1C[C@H](N)[C@H](O)[C@H](C)O1", "result": "0.0326 µM"}
{"molecule": "CS(=O)(=O)c1ccc(C(=O)Nc2ccc(Cl)c(-c3ccccn3)c2)c(Cl)c1", "result": "> 10 µM"}

---

Recorded IC50 values for a group of molecules are listed next.
Tested on: RPMI-6666
Assay: cells
Type: functional, cell-based, Homo sapiens
Conditions: Homo sapiens, RPMI-6666
Description: SANGER: Inhibition of human RPMI-6666 cell growth in a cell viability assay.

{"molecule": "O=C(O)c1ccc(-c2c[nH]c3ncc(-c4ccccc4)cc23)cc1C1CCCC1 [GSK-650394]", "IC50": "> 16000 nM"}
{"molecule": "N#Cc1c(O)c2c(-c3ccc(-c4ccccc4O)cc3)csc2[nH]c1=O", "IC50": "68 nM"}
{"molecule": "COc1cc2ncn(-c3cc(OCc4ccccc4S(C)(=O)=O)c(C#N)s3)c2cc1OC [GSK-319347A]", "IC50": "> 5000 nM"}
{"molecule": "Cc1ccc(-c2c(C(=O)CCl)n(CCCO)c3ncnc(N)c23)cc1", "IC50": "2330 nM"}
{"molecule": "COc1cccc2c1C(=O)c1c(O)c3c(c(O)c1C2=O)C[C@@](O)(C(=O)CO)C[C@@H]3O[C@H]1C[C@H](N)[C@H](O)[C@H](C)O1 [DOXORUBICIN]", "IC50": "66 nM"}
